Listed compounds paired with reported pIC50
# assay_system: human vitronectin receptor αvβ3 (Homo sapiens, UniProt P05106+P06756)
# Sequence (P06756 31-889 limits assumed): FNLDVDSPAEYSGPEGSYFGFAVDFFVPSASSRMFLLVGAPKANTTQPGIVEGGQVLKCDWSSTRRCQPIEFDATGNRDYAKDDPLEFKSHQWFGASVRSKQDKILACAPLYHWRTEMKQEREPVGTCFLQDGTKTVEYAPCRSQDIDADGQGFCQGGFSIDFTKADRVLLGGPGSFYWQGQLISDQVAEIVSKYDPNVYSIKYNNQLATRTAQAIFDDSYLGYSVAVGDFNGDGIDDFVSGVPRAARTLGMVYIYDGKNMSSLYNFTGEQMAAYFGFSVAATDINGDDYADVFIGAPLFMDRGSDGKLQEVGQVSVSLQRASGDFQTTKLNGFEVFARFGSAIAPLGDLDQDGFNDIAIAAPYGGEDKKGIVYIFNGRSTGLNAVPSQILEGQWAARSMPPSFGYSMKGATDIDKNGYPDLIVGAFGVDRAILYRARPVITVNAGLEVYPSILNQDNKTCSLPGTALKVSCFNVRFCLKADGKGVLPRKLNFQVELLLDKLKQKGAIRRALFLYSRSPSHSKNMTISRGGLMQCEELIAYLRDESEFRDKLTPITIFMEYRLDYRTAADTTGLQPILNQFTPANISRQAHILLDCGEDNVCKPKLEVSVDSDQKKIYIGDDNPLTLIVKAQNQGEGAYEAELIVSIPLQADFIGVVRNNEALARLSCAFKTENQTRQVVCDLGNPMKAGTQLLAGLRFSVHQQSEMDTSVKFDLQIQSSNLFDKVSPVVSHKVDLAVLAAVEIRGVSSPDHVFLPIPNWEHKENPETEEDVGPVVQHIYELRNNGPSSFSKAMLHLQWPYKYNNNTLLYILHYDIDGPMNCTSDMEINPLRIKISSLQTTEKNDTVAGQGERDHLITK
# Sequence (P06756 891-1048 limits assumed): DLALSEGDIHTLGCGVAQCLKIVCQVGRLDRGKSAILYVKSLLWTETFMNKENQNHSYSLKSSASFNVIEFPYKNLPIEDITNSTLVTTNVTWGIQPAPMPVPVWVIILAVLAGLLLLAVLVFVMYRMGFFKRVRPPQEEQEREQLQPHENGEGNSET
# Sequence (P05106 27-788): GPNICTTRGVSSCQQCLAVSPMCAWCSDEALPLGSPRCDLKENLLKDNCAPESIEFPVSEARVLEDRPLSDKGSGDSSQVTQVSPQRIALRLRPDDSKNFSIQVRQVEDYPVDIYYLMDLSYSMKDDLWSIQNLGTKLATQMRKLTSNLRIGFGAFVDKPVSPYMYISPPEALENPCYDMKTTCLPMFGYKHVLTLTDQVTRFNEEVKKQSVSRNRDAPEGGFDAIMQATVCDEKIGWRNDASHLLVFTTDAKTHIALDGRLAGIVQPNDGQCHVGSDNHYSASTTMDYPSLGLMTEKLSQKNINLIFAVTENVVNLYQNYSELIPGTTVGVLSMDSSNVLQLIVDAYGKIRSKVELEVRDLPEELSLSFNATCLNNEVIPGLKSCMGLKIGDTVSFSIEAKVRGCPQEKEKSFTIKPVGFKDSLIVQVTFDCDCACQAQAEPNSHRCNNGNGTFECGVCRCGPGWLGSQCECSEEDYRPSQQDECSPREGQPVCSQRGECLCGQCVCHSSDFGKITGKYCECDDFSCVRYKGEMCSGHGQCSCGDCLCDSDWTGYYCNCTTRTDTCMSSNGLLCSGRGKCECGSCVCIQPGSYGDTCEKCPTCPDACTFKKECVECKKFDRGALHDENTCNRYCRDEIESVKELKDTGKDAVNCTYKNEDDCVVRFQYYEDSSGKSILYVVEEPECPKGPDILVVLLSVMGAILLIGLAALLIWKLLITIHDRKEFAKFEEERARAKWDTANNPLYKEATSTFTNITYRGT
# test_name: Inhibition of binding of kistrin to human vitronectin receptor (αvβ3 ELISA test, K/VnR)
pIC50: −log10 of the molar value.
quantity_kind: pIC50

> print(dat)
                                    compound  value.measured
 1  N=C(N)NCCCn1cnc2c(NC[C@H](NC(=O)OCc3ccccc3)C(=O)O)ncnc21 [Example 16]            6.27
 2  O=C(N[C@@H](Cn1cnc2c(NCCCCNC3=NCCN3)ncnc21)C(=O)O)OCc1ccccc1 [Example 4]            6.82
 3  N=C(N)NCCCCNc1ncnc2c1ncn2C[C@H](NC(=O)OCc1ccccc1)C(=O)O [Example 2]            6.15
 4  N=C(N)NCCCNc1ncnc2c1ncn2C[C@H](NC(=O)OCc1ccccc1)C(=O)O [Example 3]            5.66
 5  O=C(N[C@@H](Cn1cnc2c(N3CCC(C(=O)NC4=NCCCN4)CC3)ncnc21)C(=O)O)OCc1ccccc1 [Example 19]            8.40
 6  O=C(N[C@@H](CNc1ncnc2c1ncn2CCCCNC1=NCCN1)C(=O)O)OCc1ccccc1 [Example 18]            7.12
 7  N=C(N)NCCCCCn1cnc2c(NC[C@H](NC(=O)OCc3ccccc3)C(=O)O)ncnc21 [Example 14]            6.19
 8  O=C(N[C@@H](CNc1ncnc2c1ncn2CCCCCNC1=NCCN1)C(=O)O)OCc1ccccc1 [Example 15]            6.68
 9  O=C(N[C@@H](Cn1cnc2c(N3CCC(CNC4=NCCN4)CC3)ncnc21)C(=O)O)OCc1ccccc1 [Example 24]            7.28
10  N=C(N)NCC1CCN(c2ncnc3c2ncn3C[C@H](NC(=O)OCc2ccccc2)C(=O)O)CC1 [Example 26]            6.44
11  O=C(N[C@H](Cn1cnc2c(N3CCC(CNC4=NCCN4)CC3)ncnc21)C(=O)O)OCc1ccccc1 [Example 25]            6.46
12  O=C(N[C@@H](CCNc1ncnc2c1ncn2CCCNC1=NCCN1)C(=O)O)OCc1ccccc1 [Example 13]            6.72
13  O=C(N[C@@H](Cn1cnc2c(NCCCCNc3nc4ccccc4[nH]3)ncnc21)C(=O)O)OCc1ccccc1 [Example 23]            6.80
14  N=C(N)NCCCn1cnc2c(NCC[C@H](NC(=O)OCc3ccccc3)C(=O)O)ncnc21 [Example 12]            6.24
15  N=C(N)NCCCCCNc1ncnc2c1ncn2C[C@H](NC(=O)OCc1ccccc1)C(=O)O [Example 1]            5.96
16  N=C(N)NCCCCn1cnc2c(NC[C@H](NC(=O)OCc3ccccc3)C(=O)O)ncnc21 [Example 17]            6.77
